- assayed_target: Corticotropin-releasing factor receptor 2/Corticotropin-releasing factor-binding protein (Homo sapiens, UniProt P24387+Q13324)
- Sequence (Q13324 whole entry): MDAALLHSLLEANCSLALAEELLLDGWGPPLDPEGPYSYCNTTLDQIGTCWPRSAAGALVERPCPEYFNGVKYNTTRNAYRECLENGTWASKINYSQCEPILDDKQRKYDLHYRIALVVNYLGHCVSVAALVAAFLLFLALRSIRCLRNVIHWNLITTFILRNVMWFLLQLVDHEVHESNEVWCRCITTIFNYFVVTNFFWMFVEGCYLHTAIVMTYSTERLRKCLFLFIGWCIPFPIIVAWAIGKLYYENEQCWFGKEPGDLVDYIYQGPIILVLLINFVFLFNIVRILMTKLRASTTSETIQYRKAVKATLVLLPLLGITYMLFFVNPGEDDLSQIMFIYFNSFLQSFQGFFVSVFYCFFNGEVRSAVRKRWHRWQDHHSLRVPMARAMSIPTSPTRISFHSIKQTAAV
- Sequence (P24387 whole entry): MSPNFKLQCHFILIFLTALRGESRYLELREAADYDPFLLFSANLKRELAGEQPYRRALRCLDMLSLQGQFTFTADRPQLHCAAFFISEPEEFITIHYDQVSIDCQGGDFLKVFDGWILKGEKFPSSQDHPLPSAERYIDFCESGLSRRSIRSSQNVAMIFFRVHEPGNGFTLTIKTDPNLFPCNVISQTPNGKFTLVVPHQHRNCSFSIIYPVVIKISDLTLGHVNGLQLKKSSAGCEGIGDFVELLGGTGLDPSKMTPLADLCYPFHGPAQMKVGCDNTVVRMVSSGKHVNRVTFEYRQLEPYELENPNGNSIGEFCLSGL
- protocol: activators of CRF receptor 2 with binding protein – uHTS hits, confirmation (AID 602473)
- Format: functional
- measurement_conditions: read-out: EC50_Mean
Calls of active or inactive are those of the source.
Reported values of EC50 for individual entries

Below, each entry is followed by its recorded EC50 result.
> print(dat)
                                 smiles.str  experimental.readout           obs.value
1  CCOC(=O)C(C)(C)N(Cc1ccc(C)cc1)S(=O)(=O)c1ccc(Cl)c([N+](=O)[O-])c1                  EC50  > 53 µM (inactive)
2  Cc1c(C(c2ccc(N(C)C)cc2)c2c(C)n(C)n(-c3ccccc3)c2=O)c(=O)n(-c2ccccc2)n1C                  EC50  > 53 µM (inactive)

Input: Name the recorded EC50 for `CC(=O)c1cc(F)c(N2CCN(C(=O)C(C)(C)C)CC2)cc1C` .
Output: > 53 µM (inactive)

---

Reported values of IC50 for individual entries
- assayed_target: Genome polyprotein (dengue virus type 2)
- Sequence (P29990 2492-3391 limits assumed): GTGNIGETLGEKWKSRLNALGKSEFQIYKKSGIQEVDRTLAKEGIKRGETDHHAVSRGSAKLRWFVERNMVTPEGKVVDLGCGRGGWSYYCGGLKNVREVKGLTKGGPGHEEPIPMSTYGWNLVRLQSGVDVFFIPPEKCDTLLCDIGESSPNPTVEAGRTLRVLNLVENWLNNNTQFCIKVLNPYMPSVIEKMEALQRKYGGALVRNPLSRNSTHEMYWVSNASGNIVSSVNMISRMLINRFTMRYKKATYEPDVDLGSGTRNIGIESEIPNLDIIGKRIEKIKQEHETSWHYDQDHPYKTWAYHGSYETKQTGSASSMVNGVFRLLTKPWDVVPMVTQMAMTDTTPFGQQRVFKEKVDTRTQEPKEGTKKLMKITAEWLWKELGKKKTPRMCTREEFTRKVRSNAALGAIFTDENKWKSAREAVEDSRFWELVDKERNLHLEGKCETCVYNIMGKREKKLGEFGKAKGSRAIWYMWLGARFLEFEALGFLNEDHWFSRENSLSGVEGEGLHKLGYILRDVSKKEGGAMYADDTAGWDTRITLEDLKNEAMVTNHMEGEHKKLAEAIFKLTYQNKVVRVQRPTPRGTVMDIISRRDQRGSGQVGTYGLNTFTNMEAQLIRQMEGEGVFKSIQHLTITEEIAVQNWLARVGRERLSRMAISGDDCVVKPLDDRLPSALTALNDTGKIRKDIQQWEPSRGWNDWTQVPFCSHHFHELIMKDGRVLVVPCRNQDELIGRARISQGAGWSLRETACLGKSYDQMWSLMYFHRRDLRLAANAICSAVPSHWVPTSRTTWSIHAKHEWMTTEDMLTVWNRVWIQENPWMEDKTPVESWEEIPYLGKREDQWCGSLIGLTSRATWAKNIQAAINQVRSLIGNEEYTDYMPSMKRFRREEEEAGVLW
- protocol: Dengue-2 NS5 methyltransferase inhibitors, primary screen, biochemical, confirmation dose response (AID 588689)
- Type: functional
Activity calls are given as the source filed them.

Below, each entry is followed by its recorded IC50 result.
> print(dat)
                                   molecule         obs.value
1  COc1ccc(/C=C2/SC(=S)N(NS(=O)(=O)c3ccc(C)cc3)C2=O)cc1  56.9 µM (active)
2  CCN(CC)C(=O)c1ccc2c(c1)C1C(Cl)C(Sc3ccccc3[N+](=O)[O-])CC1C(C(=O)O)N2 (centres undefined)  59.1 µM (active)
3  O=C1Nn2c(nc3c(c2=O)CCCC3)/C1=N/Nc1cccc(C(F)(F)F)c1  28.7 µM (active)

As a next step, examine the molecule that follows.
Input: Name the recorded IC50 for `CCOC(=O)c1cc(-c2ccc(/C=C3/C(=O)N(c4ccc(C(=O)O)cc4)N=C3C)o2)ccc1Cl` .
Output: 21.2 µM (active)

---

Reported values of AC50 for individual entries
- assayed_target: Cytochrome P450 1A2 (Homo sapiens);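 further: PubChem cytochrome P450 panel assay, CYP1A2 panel member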
- Sequence (P05177 whole entry): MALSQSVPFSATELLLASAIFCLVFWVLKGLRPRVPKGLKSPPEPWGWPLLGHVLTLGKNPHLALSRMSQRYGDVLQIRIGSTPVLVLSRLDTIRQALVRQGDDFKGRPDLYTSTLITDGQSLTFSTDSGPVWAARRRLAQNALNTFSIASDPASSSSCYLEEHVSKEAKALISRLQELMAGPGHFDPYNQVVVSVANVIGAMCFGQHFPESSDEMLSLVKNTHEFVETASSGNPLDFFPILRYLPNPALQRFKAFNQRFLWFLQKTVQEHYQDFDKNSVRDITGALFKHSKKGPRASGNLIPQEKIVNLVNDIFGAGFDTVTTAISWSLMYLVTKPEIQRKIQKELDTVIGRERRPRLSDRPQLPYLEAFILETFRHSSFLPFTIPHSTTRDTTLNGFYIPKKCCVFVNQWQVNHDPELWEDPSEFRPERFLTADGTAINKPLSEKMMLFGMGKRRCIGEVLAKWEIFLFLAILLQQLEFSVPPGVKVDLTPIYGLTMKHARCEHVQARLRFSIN

Below, each entry is followed by its recorded AC50 result.
> print(dat)
                                   compound               obs.value
1        CCOC(=O)c1cnc(-n2nc(C)cc2C)nc1NCCO  14.1 µM (inconclusive)
2  O=C(C[S+]([O-])c1cccc(Cl)c1)Nc1ccccc1Cl (stereo not drawn)  15.8 µM (inconclusive)

As a next step, examine the compound that follows.
Input: Name the recorded AC50 for `O=c1c(-c2cccs2)nc2cnc(Nc3ccccc3)nc2n1C[C@H]1CCCO1` .
Output: 2.51 µM (inconclusive)

---

- assayed_target: UniProt:P38532
- Sequence (P38532 whole entry): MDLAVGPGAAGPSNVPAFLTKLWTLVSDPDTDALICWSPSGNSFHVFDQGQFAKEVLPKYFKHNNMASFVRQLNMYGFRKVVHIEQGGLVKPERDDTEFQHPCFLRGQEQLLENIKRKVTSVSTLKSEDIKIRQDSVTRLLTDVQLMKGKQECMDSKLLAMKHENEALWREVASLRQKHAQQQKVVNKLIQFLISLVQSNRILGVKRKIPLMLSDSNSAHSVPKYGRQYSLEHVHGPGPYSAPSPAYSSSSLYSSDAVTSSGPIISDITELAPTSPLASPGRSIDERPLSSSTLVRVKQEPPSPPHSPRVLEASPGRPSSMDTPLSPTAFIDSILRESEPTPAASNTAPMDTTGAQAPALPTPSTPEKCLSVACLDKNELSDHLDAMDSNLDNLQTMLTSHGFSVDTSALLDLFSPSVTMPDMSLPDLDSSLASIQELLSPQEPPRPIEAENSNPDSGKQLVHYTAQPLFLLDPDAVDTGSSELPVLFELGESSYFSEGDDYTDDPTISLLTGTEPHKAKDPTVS
- protocol: HSF1 potentiators in luciferase reporter cells, confirmation, cell-based, NIH3T3, luminescence, dose retest (AID 435004);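 further: stress induced by proteasome inhibitor MG132 added 30 min after compound; luciferase reporter driven by HSF1 response element in NIH3T3 cells; actives raise luminescence as potentiators of the MG132 stress response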
- Assay type: functional
Activity calls are given as the source filed them.
Log the outcome using a class from active, inactive

Would you please look over these solved cases?
> print(dat)
                                   compound     group
1  CC(C)NC(=O)CN(C(=O)CCC(=O)Nc1nccs1)c1ccc2c(c1)OCO2  inactive
2  CN(C1=C(NC(=O)c2ccccc2)C(=O)c2ccccc2C1=O)C1CCS(=O)(=O)C1 (stereo not given)    active
3  Cc1cccc(OCC(=O)Nc2ccc3c(c2)nc(CCN2CCCCC2)n3C)c1  inactive
4  NS(=O)(=O)c1ccc(NC(=O)CN2C(=O)CCC2=O)cc1  inactive

In the following, a different compound is considered.
Input: Check the results log: what was the call for `CCOc1ccc(S(=O)(=O)c2c(C(=O)c3ccccc3)cnc3cc4c(cc23)OCCO4)cc1` ?
Output: inactive
